Tested on: IRF pathway in THP1-Dual™ cells, THP-1 (HAQ)
ASSAY_DETAILS: Reporter gene expression assay in THP-1 cells (THP1-Dual, IRF pathway Lucia luciferase reporter, 2′,3′-cGAMP stimulation)
Format: cell-based, human
STUDY_CONDITIONS: Homo sapiens; THP1-Dual cells preincubated with compound 10 minutes, stimulation with 5 μM 2′,3′-cGAMP for 20 hr, QUANTI-Luc readout of the supernatant; read-out: THP-1 (HAQ) Activity (IC50 value range)
REPORTED_ENDPOINT: IC50

Lab note: IRF pathway in THP1-Dual™ cells, THP-1 (HAQ) assay, enter IC50 for `O=C(Nc1ccc2c(c1)N(Cc1ccccc1)C(=O)CS2)Nc1c[nH]c2ccc(-c3cnn(CCO)c3)cc12` here
1000 to 10000 nM

Lab note: IRF pathway in THP1-Dual™ cells, THP-1 (HAQ) assay, enter IC50 for `O=C(Nc1ccc2c(c1)N(Cc1ccncc1)C(=O)CS2)Nc1c[nH]c2ccccc12` here
1000 to 10000 nM

Lab note: IRF pathway in THP1-Dual™ cells, THP-1 (HAQ) assay, enter IC50 for `O=C(Nc1ccc2c(c1)N(Cc1ccccc1)C(=O)CS2)Nc1c[nH]c2ccc(-c3ccncc3)cc12` here
< 1000 nM

Lab note: IRF pathway in THP1-Dual™ cells, THP-1 (HAQ) assay, enter IC50 for `COc1ccc(F)c(CN2C(=O)CSc3ccc(NC(=O)Nc4c[nH]c5ccccc45)cc32)c1Cl` here
< 1000 nM

Attribution: patent US20260159511A1
